Recorded normalized growth, one value per entry.
Test Details: chemical genetic growth profiling, strain panel (AID 1159580);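 also: tested at 20 µM; growth read once vehicle control cultures reached saturation at 30 °C; 1 = growth at the plate median or of vehicle wells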
Reported Conditions: S. cerevisiae deletion strains, growth OD, locus YKL085W, strain MDH1 (second series), stronger effect = lower value
In all, about 5,500 compounds went through this assay and about 2,000 (36%) were called active. Another 18% or so got no clear call; they are omitted. The list shows a part of the results.
Readout: normalized growth

INSERT INTO results (compound, observed_value) VALUES
  ('COC(=O)C1OC(=O)C2OC23C1(C)CCC1C2(C)C(OC(C)=O)CC(OC(C)=O)C(C)(C)C2CC(=O)C13C (configuration not stated)', '0.984 (inactive)'),
  ('CC(C)(O)[C@@H]1Cc2cc3ccc(=O)oc3cc2O1', '1 (inactive)'),
  ('NC(N)=NC(=O)c1nc(Cl)c(N2CCCCCC2)nc1N', '1.01 (inactive)'),
  ('C[C@@H]([C@H](O)c1ccccc1)N(C)C', '1.02 (inactive)'),
  ('C=C(C)[C@H]1COc2cc3oc(=O)ccc3cc2O1', '0.972 (inactive)'),
  ('NC(=O)NCC(N)C(=O)O (configuration not stated)', '1.01 (inactive)'),
  ('CN(C)c1nc(N)c(C(=O)N=C(N)N)nc1Cl', '1.01 (inactive)');

----------
Test Details: chemical genetic growth profiling, strain panel (AID 1159580)
Reported Conditions: S. cerevisiae deletion strains, growth OD, locus YDL035C, strain GPR1, stronger effect = lower value
In all, about 5,500 compounds went through this assay and about 2,000 (36%) were called active. Another 18% or so got no clear call; they are omitted. The list shows a part of the results.
Recorded normalized growth, one value per entry.
Readout: normalized growth

INSERT INTO measurements (compound, readout, observed_value) VALUES
  ('CNC(=O)Oc1cccc2c1OC(C)(C)O2', 'normalized growth', 1.02),
  ('CC(=O)O[C@@H]1CC2C(C)(C)C(=O)C=C[C@]2(C)C2CC[C@@]3(C)[C@H](c4ccoc4)OC(=O)[C@H]4O[C@]43[C@@]21C (stereo not given in full)', 'normalized growth', 1),
  ('COc1ccc2c3c1OC1C(O)CC=C4C(C2)N(C)CCC431 (stereo not given)', 'normalized growth', 1.01),
  ('CCC1OC(=O)[C@H](C)C(=O)[C@H](C)[C@@H](OC2O[C@H](C)C[C@H](N(C)C)[C@H]2O)[C@](C)(OC)C2(CCCn3cnc(-c4cccnc4)c3)C[C@@H](C)C(=O)[C@H](C)[C@H]3N(C2)C(=O)O[C@]13C (stereo not given in full)', 'normalized growth', 1.01),
  ('CC1(C)C2CC(=O)[C@]3(C)C(CC[C@@]4(C)[C@H](c5ccoc5)OC(=O)[C@H]5O[C@]543)[C@@]2(C)C(=O)C[C@H]1O (stereo not given in full)', 'normalized growth', 0.975);

----------
Recorded normalized growth, one value per entry.
Test Details: chemical genetic growth profiling, strain panel (AID 1159580)
Reported Conditions: S. cerevisiae deletion strains, growth OD, locus YMR205C, strain PFK2, stronger effect = lower value
Out of some 5,500 compounds screened, about 2,000 (36%) were called active. Inconclusive results (about 18%) are left out. The list shows a part of the results. Where a SMILES comes first, the peptide text is derived from it.
Readout: normalized growth

INSERT INTO assay_data (molecule, readout, observed_value) VALUES
  ('Cc1ccccc1OCC(O)CO (stereo not drawn)', 'normalized growth', '0.975 (inactive)'),
  ('CN[C@@H]1C(O)[C@@H](O[C@@H]2[C@@H](O)[C@H](O[C@H]3OC(CN)=CC[C@H]3N)[C@@H](N)C[C@H]2N)OC[C@]1(C)O (stereo partly drawn)', 'normalized growth', '1.02 (inactive)'),
  ('COC(=O)[C@H](Cc1ccccc1)NC(=O)[C@@H](N)CC(=O)O (H-Asp-Phe-OMe)', 'normalized growth', '1.02 (inactive)'),
  ('C[C@]12CCC3c4ccc(O)cc4CCC3C1CC[C@@H]2O (stereo partly drawn)', 'normalized growth', '1.01 (inactive)'),
  ('CC(C)c1c(O)c(-c2cc3c(c(C(C)C)c2O)CCC2C(C)(C)CCC[C@]32C)cc2c1CCC1C(C)(C)CCC[C@]21C (stereo partly drawn)', 'normalized growth', '0.973 (inactive)'),
  ('CC(=O)OCC1=C(C(=O)O)N2C(=O)[C@@H](NC(=O)Cc3cccs3)[C@H]2SC1', 'normalized growth', '1.02 (inactive)'),
  ('CC1(C)C2CC(=O)[C@]3(C)C(CC[C@@]4(C)[C@H](c5ccoc5)OC(=O)[C@H]5O[C@]543)[C@@]2(C)C(=O)C[C@H]1O (stereo partly drawn)', 'normalized growth', '1 (inactive)'),
  ('O=c1c(O)c(-c2ccc(O)cc2O)oc2cc(O)cc(O)c12', 'normalized growth', '0.98 (inactive)');

----------
Test Details: chemical genetic growth profiling, strain panel (AID 1159580)
Reported Conditions: S. cerevisiae deletion strains, growth OD, locus YPL055C, strain LGE1, stronger effect = lower value
Hit rate of the full screen: of about 5,500 compounds, about 2,000 (36%) were called active. Another 18% or so got no clear call; they are omitted. This is one part of the list.
Recorded normalized growth, one value per entry.
Readout: normalized growth

INSERT INTO measurements (compound, observed_value) VALUES
  ('CC(=O)OC1CN2CCC1CC2 (stereo not drawn)', 1.02),
  ('O=S(=O)(Oc1cc(Cl)cc(Cl)c1)c1cccc(S(=O)(=O)Oc2cc(Cl)cc(Cl)c2)c1', 1.01),
  ('CC1=CC(=O)C2=C(C)CC[C@@H]3[C@H](OC(=O)[C@H]3C)[C@@H]12', 0.999);

----------
Test Details: chemical genetic growth profiling, strain panel (AID 1159580);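 also: tested at 20 µM; growth read once vehicle control cultures reached saturation at 30 °C; 1 = growth at the plate median or of vehicle wells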
Reported Conditions: S. cerevisiae deletion strains, growth OD, locus YNL153C, strain GIM3
About 2,000 (36%) of roughly 5,500 compounds were called active. Roughly 18% stayed inconclusive and do not appear here. No stated cut-off is given here; in the data, active means normalized growth mostly below about 0.91 (no sharp cut-off); inconclusive means no clear call, values can overlap the other calls; inactive means mostly above about 0.92. The list shows a part of the results.
Outcome codes: 1.0 for active, 0.0 for inactive

INSERT INTO results (compound, category_label) VALUES
  ('COCCCNC(=S)N/N=C\c1cccc(OC)c1O', 0.0),
  ('Brc1ccc(-c2ccn[nH]2)s1', 1.0),
  ('CCCCC1C(=O)N(c2ccccc2)N(c2ccc(O)cc2)C1=O (centres undefined)', 0.0),
  ('CCOC(=O)N/N=C\c1ccccc1OCC', 0.0);

----------
Test Details: chemical genetic growth profiling, strain panel (AID 1159580);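 also: tested at 20 µM; growth read once vehicle control cultures reached saturation at 30 °C; 1 = growth at the plate median or of vehicle wells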
Reported Conditions: S. cerevisiae deletion strains, growth OD, locus YPL055C, strain LGE1, stronger effect = lower value
The whole screen tested about 5,500 compounds, of which about 2,000 (36%) were called active. About 18% were inconclusive and are not listed. The list shows a part of the results.
Classify: 1.0 when normalized growth is strictly less than 1; 0.0 when normalized growth is not.

INSERT INTO results (compound, category_label) VALUES
  ('Cc1cc(C)c(CSCCNC(=O)Nc2ccc(F)cc2F)c(C)c1', 1.0),
  ('O=C1CC(Nc2ccccc2)C=C1Nc1ccccc1 (stereo unspecified)', 0.0),
  ('CN(C)C=Nc1nnc(Sc2nc3cc(Cl)ccc3s2)s1', 1.0),
  ('Cc1cc(Br)c(NC(=O)C(Cl)(Cl)Cl)c(Br)c1', 1.0),
  ('COc1ccccc1NC(=O)NCCSCc1ccccc1Cl', 1.0),
  ('FC(F)(F)c1ccc(Cl)c(NC(=S)NN=C2CCCCCC2)c1', 1.0),
  ('O=[N+]([O-])c1ccc(Oc2cccc3cccnc23)cc1', 1.0),
  ('CSc1nsc(SC)c1C(=O)NC(=O)Nc1ccc(F)cc1F', 0.0),
  ('COc1ccc2c3c1OC1C(O)CC=C4C(C2)N(C)CCC431 (stereo unspecified)', 0.0),
  ('Cc1cc(OC(=O)c2c(C)cc(OC(=O)c3c(C)cc(O)cc3O)cc2O)cc(O)c1C(=O)O', 0.0),
  ('CC(C)c1c(O)ccc2c1CCC1[C@@](C)(C=O)CCC[C@]21C (stereo partly specified)', 1.0);

----------
Recorded normalized growth, one value per entry.
Test Details: chemical genetic growth profiling, strain panel (AID 1159580);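 also: tested at 20 µM; growth read once vehicle control cultures reached saturation at 30 °C; 1 = growth at the plate median or of vehicle wells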
Reported Conditions: S. cerevisiae deletion strains, growth OD, locus YMR129W, stronger effect = lower value
Out of some 5,500 compounds screened, about 2,000 (36%) were called active. Inconclusive results (about 18%) are left out. This is one part of the list.
Readout: normalized growth

INSERT INTO results (compound, observed_value) VALUES
  ('CC[n+]1c(-c2ccccc2)c2cc(N)ccc2c2ccc(N)cc21', 0.969),
  ('CC(CC(C(N)=O)(c1ccccc1)c1ccccc1)N(C)C (configuration not stated)', 0.972),
  ('CC(=O)OC(C)C[N+](C)(C)C (configuration not stated)', 0.993),
  ('C=C[C@H]1CN2CC[C@H]1C[C@@H]2[C@@H](OC(=O)OCC)c1ccnc2ccc(OC)cc12', 0.997),
  ('CC(C)N(CCC(C(N)=O)(c1ccccc1)c1ccccn1)C(C)C (configuration not stated)', 0.0614),
  ('CC(C1OC(C)(C)C(O)C1O)[C@@H]1CC[C@]2(C)C3=CCC4C(C)(C)C(=O)CC[C@]4(C)C3CC[C@@]12C (some centres not stated)', 0.996),
  ('CC1CC[C@]2(NC1)O[C@H]1CC3C4CC[C@H]5C[C@@H](O)CC[C@]5(C)C4CC[C@]3(C)[C@H]1[C@@H]2C (some centres not stated)', 0.0908),
  ('CC1CC[C@@]2(OC1)O[C@H]1CC3C4CC[C@@H]5C[C@@H](O)CC[C@]5(C)C4CC[C@]3(C)[C@H]1[C@@H]2C (some centres not stated)', 1.01),
  ('CCOCN(C(=O)CCl)c1c(C)cccc1CC', 0.982),
  ('C=C1CCC2(OC1)OC1CC3C4CC=C5CC(O)CC(O)C5(C)C4CCC3(C)C1C2C (configuration not stated)', 1.01),
  ('O=c1c(O)c(-c2ccc(O)cc2O)oc2cc(O)cc(O)c12', 1.01),
  ('C[C@@H]1CC[C@@]2(OC1)OC1CC3C4CC=C5C[C@@H](O)CC[C@]5(C)C4CC[C@]3(C)C1[C@@H]2C (some centres not stated)', 0.996),
  ('COc1cc(O)c2c(=O)c(O)c(-c3ccc(O)c(O)c3)oc2c1', 0.927),
  ('C[C@@H]1O[C@@H](OC[C@H]2OC(Oc3c(-c4ccc(OCCO)c(OCCO)c4)oc4cc(OCCO)cc(O)c4c3=O)[C@H](O)[C@@H](O)[C@@H]2O)[C@H](O)[C@H](O)[C@H]1O (some centres not stated)', 0.972),
  ('C[C@@H]([C@H](O)c1ccccc1)N(C)C', 1.02),
  ('CCN[C@@H]1C[C@H](N)[C@@H](O[C@H]2OC(CN)=CC[C@H]2N)[C@H](O)[C@H]1OC1OC[C@](C)(O)[C@H](NC)[C@H]1O (some centres not stated)', 0.994),
  ('OCC(O)C(O)C(O)C(O)C(O)CO (configuration not stated)', 0.99),
  ('CC(CC(O)C1OC1(C)C)[C@@H]1CCC2(C)C3=CCC4C(C)(C)C(=O)CCC4(C)C3CC[C@@]12C (some centres not stated)', 1),
  ('COc1c2ccoc2cc2oc(=O)ccc12', 0.977),
  ('COc1ccc(-c2cc(=O)c3c(O)cc(O[C@H]4O[C@H](CO[C@@H]5O[C@@H](C)[C@H](O)[C@@H](O)[C@H]5O)[C@@H](O)[C@H](O)[C@H]4O)cc3o2)cc1', 0.999),
  ('O=c1c(O)c(-c2ccc(O)c(O)c2)oc2c(O[C@@H]3O[C@H](CO)[C@H](O)[C@@H](O)[C@H]3O)c(O)cc(O)c12', 1.01),
  ('C[C@@H]1CC[C@@]2(NC1)O[C@H]1C[C@H]3C4CC=C5C[C@@H](O)CC[C@]5(C)C4CC[C@]3(C)C1[C@@H]2C (some centres not stated)', 0.0739);
